This collection of values is drawn from the EternaBench riboswitch data.

# Test system: MS2 coat protein
# protocol.description: apparent Kd, MS2 coat protein; higher = weaker binding; RNA-MaP array; FMN 200 µM where present
# assay.conditions: designed as: OFF switch for flavin mononucleotide; no ligand
measured.attribute: apparent Kd (nM)
Note: unit nM is implicit; provide only the numeric part.

Guide cases for apparent Kd, answers given:
[
  {
    "sequence.code": "AAACAUGUCCGAGGAUAUCUGGAAACAUUUCCAAGAGAAGGCGGACAUGAGGAUCACCCAUGUCUCUCCUCAUCAAAUCCAAGA",
    "measured.target": "MS2 coat protein",
    "apparent Kd [nM]": 8
  },
  {
    "sequence.code": "UUCCGGCGUGUAGGAUAUGGAUCCGAUUAGGAUCCAGAAGGACAUGAGGAUCACCCAUGUACAUGUAAACAGUCAUCACCGGAA",
    "measured.target": "MS2 coat protein",
    "apparent Kd [nM]": 6.09
  },
  {
    "sequence.code": "UUCGUGCAGCUUUGCUGUACGCGUACAUGAGGAUCACCCAUGUAGGAUAUGGUAGGCAUUGCUUACUAGAAGGAUAGUGUGAUC",
    "measured.target": "MS2 coat protein",
    "apparent Kd [nM]": 124
  }
]

INPUT: Read off the recorded apparent Kd for AGAAUGAUGUCAGGAUAUGACGCUGAGAGCACGUCAGAAGGGACAUGAGGAUCACCCAUGUCGGGCUAAUGAAGCUAUGGCACU
OUTPUT: 8.86

INPUT: Read off the recorded apparent Kd for GGAAGACAAAGUCUUCCAAUUCGAACAUGAGGAUCACCCAUGUAGGAUAUGCUACUCAAAGAGUAGCAGAAGGACAUGUGCUUU
OUTPUT: 37.3
